Test description: Pharmacokinetics of α-MG after intravenous administration to mice (automated microsampling)
Format: in vivo
Assay conditions: mouse, plasma, intravenous, 20 mg/kg
Parameter: CL renal (mL/min/kg)
One number for each entry, in mL/min/kg.

Query: Data request, read-out CL renal, for COc1c(O)cc2oc3cc(O)c(CC=C(C)C)c(O)c3c(=O)c2c1CC=C(C)C [α-MG, α-Mangostin]
Result: 0.141

---

Test description: Pharmacokinetics of α-MG after oral administration to mice (automated microsampling)
Format: in vivo
Assay conditions: mouse, plasma, oral, 10 mg/kg
Parameter: CL renal (mL/min/kg)
Give bare numbers, in mL/min/kg.

Query: Data request, read-out CL renal, for COc1c(O)cc2oc3cc(O)c(CC=C(C)C)c(O)c3c(=O)c2c1CC=C(C)C
Result: 0.535

---

Test description: Pharmacokinetics of α-MG after intravenous administration to mice (automated microsampling)
Type: in vivo
Assay conditions: mouse, plasma, intravenous, 20 mg/kg
Parameter: MRT (h)
Give bare numbers, in h.

Query: Data request, read-out MRT, for COc1c(O)cc2oc3cc(O)c(CC=C(C)C)c(O)c3c(=O)c2c1CC=C(C)C [α-MG, α-Mangostin]
Result: 2.4

---

Test description: Pharmacokinetics of α-MG after oral administration to mice (automated microsampling)
Format: in vivo
Assay conditions: mouse, plasma, oral, 100 mg/kg
Parameter: CL renal (mL/min/kg)
Numbers only, in mL/min/kg.

Query: Data request, read-out CL renal, for COc1c(O)cc2oc3cc(O)c(CC=C(C)C)c(O)c3c(=O)c2c1CC=C(C)C [α-MG, α-Mangostin]
Result: 0.418

---

Test description: Pharmacokinetics of α-MG after intravenous administration to mice (automated microsampling)
Type: in vivo
Assay conditions: mouse, plasma, intravenous, 10 mg/kg
Parameter: CL renal (mL/min/kg)
Answers are plain numbers, in mL/min/kg.

Query: Data request, read-out CL renal, for COc1c(O)cc2oc3cc(O)c(CC=C(C)C)c(O)c3c(=O)c2c1CC=C(C)C [α-MG, α-Mangostin]
Result: 0.205

---

Test description: Pharmacokinetics of α-MG after oral administration to mice (automated microsampling)
Format: in vivo
Assay conditions: mouse, plasma, oral, 50 mg/kg
Parameter: CL renal (mL/min/kg)
Give bare numbers, in mL/min/kg.

Query: Data request, read-out CL renal, for COc1c(O)cc2oc3cc(O)c(CC=C(C)C)c(O)c3c(=O)c2c1CC=C(C)C
Result: 0.547

---

Test description: Pharmacokinetics of α-MG after intravenous administration to mice (automated microsampling)
Assay type: in vivo
Assay conditions: mouse, plasma, intravenous, 5 mg/kg, read-out: Terminal half-life
Parameter: half-life
Provide a numeric answer, followed by its unit.

Query: Data request, read-out half-life, for COc1c(O)cc2oc3cc(O)c(CC=C(C)C)c(O)c3c(=O)c2c1CC=C(C)C [α-MG, α-Mangostin]
Result: 3.77 h

---

Test description: Pharmacokinetics of α-MG after oral administration to mice (automated microsampling)
Assay type: in vivo
Assay conditions: mouse, plasma, oral 10 mg/kg, AUCoral/AUCiv at the same dose, read-out: F (absolute oral bioavailability)
Description: The surgical procedures were conducted under intramuscular injection anesthesia with 125 mg (1.5 mL)/kg of tiletamine HCl and zolazepam HCl mixture. […] Standard methods were used to calculate the following pharmacokinetic parameters using a non-compartmental analysis (WinNonlin 2.1; Pharmasight Corp., Mountain View, CA). The extent of absolute oral bioavailability (F) was calculated by dividing the AUCoral/AUCiv at the same dose. […]
Parameter: bioavailability (%)
One number for each entry, in %.

Query: Data request, read-out bioavailability, for COc1c(O)cc2oc3cc(O)c(CC=C(C)C)c(O)c3c(=O)c2c1CC=C(C)C [α-MG, α-Mangostin]
Result: 2.29

Origin of the recorded values: paper PMC4503439
